The origin of these recorded values is patent US20250382359A1.

Molecular target: T1, GDF15 (ligand used in the GFRAL/RET cell assays) (UniProt Q99988 197-308, limits assumed)
T1 sequence (looked up): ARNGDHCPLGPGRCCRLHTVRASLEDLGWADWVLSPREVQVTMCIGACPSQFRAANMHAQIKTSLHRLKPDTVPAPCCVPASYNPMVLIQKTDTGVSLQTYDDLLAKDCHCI
Assay: cell-based or functional assay
Measured GDF15 GFRAL RET pERK Fab IC50 pM, listed per entry for reference.
Write the answer as a number in pM, unit excluded.

Reference set, count: 2
GDF15 antibody agent Clone J, Fab (Fab, V domains shown, Fab; CH1 and CL of the Fab not specified; also called Fab of Clone J) VH: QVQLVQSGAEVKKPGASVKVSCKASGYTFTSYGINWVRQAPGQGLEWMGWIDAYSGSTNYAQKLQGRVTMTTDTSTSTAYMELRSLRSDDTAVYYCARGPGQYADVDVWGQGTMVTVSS VL: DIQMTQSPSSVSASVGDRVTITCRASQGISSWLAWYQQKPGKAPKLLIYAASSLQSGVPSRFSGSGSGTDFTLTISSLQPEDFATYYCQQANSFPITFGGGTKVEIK    75.1
GDF15 antibody agent Clone I, Fab (Fab, V domains shown, Fab; CH1 and CL of the Fab not specified; also called Fab of Clone I) VH: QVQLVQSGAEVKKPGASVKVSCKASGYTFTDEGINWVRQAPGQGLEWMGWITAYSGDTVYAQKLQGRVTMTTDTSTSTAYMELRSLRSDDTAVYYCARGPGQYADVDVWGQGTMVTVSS VL: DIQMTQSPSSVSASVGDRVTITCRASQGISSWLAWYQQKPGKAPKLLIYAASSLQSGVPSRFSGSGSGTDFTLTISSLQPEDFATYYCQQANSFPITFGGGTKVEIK    111

Request: Report GDF15 GFRAL RET pERK Fab IC50 pM for GDF15 antibody agent Clone E, Fab (Fab, V domains shown, Fab; CH1 and CL of the Fab not specified; also called Fab of Clone E) VH: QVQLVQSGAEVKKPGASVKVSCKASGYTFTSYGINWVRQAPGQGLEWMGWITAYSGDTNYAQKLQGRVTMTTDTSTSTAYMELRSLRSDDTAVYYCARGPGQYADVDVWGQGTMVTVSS VL: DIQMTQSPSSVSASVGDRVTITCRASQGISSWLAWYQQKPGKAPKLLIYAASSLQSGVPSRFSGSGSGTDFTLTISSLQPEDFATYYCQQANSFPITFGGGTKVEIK please.
Response: 46.7
